// provenance: patent US7138361B2

Test system: rice (Oryza saliva)
Assay: Test C flooded paddy test
Type: in vivo
Settings: flooded paddy test, Rate 62 g/ha; scale 0 to 100 (0 no effect, 100 complete control)
A collection of compounds and their measured Plant response rating, Rice
Answer with a number only.

Observe how each entry below is paired with its result.
CC(C)(C)c1ccn(C2CCN(c3cccc(OC(F)(F)C(F)F)c3)C2=O)n1 (stereo not drawn) :: 0
CCC(CC)c1ccn(C2SCN(c3cccc(C(F)(F)F)c3)C2=O)n1 (stereo not drawn) :: 30

Can you look up Plant response rating, Rice on rice (Oryza saliva) for CCC(CC)c1ccn(C2OCN(c3cccc(OC(F)(F)F)c3)C2=O)n1 (stereo not drawn) ? 20

---

Recorded measurements of Plant response rating, Surinam grass, one per entry
System: Surinam grass (Brachiaria decumbens)
Experiment: Test C preemergence
Assay type: in vivo
Conditions: Rate 125 g/ha; scale 0 to 100, 0 no effect, 100 complete control
Form rule: numeric answer, no unit written next to it.

CC(C)Oc1cccc(N2CCC(n3ccc(C(C)C)n3)C2=O)c1 (stereo not shown) :: 80
Cc1ccc(N2CCC(n3ccc(C(C)(C)C)n3)C2=O)cc1I (stereo not shown) :: 0
CCCC(C)c1ccn(C2SCN(c3cccc(OC(F)(F)F)c3)C2=O)n1 (stereo not shown) :: 10
CCCOc1cc(N2CCC(n3ccc(C(C)(C)C)n3)C2=O)ccc1C (stereo not shown) :: 0
COc1cc(N2CCC(n3ccc(C(C)(C)C)n3)C2=O)ccc1Br (stereo not shown) :: 20

Please look up its Plant response rating, Surinam grass: CCC(C)c1ccn(C2OCN(c3cccc(OC(F)F)c3)C2=O)n1 (stereo not shown) 100

Let us now turn to CCC(CC)c1ccn(C2CCN(c3ccc(Br)c(OC)c3)C2=O)n1 (stereo not shown) 0

Would you mind doing CC(C)(C)c1ccn(C2OCN(c3cccc(OC(F)F)c3)C2=O)n1 (stereo not shown) as well? 100

Now the compound CCC(C)c1ccn(C2CCN(c3ccc(Br)c(OC)c3)C2=O)n1 (stereo not shown) 0

// same read-out, input: CCC(C)c1ccn(C2CCN(c3cccc(OC)c3)C2=O)n1 (stereo not shown) 40

---

Measured Plant response rating, Morningglory values are reported for all entries that follow.
Test system: morningglory (Ipomoea hederacea)
Assay: Test C preemergence
Type: in vivo
Conditions: preemergence; Rate 250 g/ha; scale 0 to 100, 0 no effect, 100 complete control

Worked examples, 4 compounds total:
CCC(CC)c1ccn(C2CCN(c3ccc(Cl)c(OC)c3)C2=O)n1 (centres unmarked) :: 90
CC(C)(C)c1ccn(C2OCN(c3cccc(OC(F)F)c3)C2=O)n1 (centres unmarked) :: 20
CCC(CC)c1ccn(C2CCN(c3cccc(OC(C)C)c3)C2=O)n1 (centres unmarked) :: 20
COc1cccc(N2CCC(n3ccc(C(C)(C)C)n3)C2=O)c1 (centres unmarked) :: 0

Recorded Plant response rating, Morningglory for CCC(C)c1ccn(C2CCN(c3cccc(OC)c3)C2=O)n1 (centres unmarked) with morningglory (Ipomoea hederacea), please? 0

---

Listed compounds paired with reported Plant response rating, Corn
Tested on: corn (Zea mays)
Experiment: Test B preemergence
Type: in vivo
Details: Preemergence, Rate 500 g/ha; scale 0 to 100, 0 no effect, 100 complete control
Note: the reply should be a number with no unit written.

See these solved cases before continuing.
CC1(C)CCc2cn(C3CCN(c4cccc(C(F)(F)F)c4)C3=O)nc21 (stereo not drawn) [Compound 10] :: 0
CC1CCc2cn(C3CCN(c4cccc(C(F)(F)F)c4)C3=O)nc21 (stereo not drawn) [Compound 11] :: 0
CCC(C)c1ccn(C2OCN(c3cccc(OC(F)(F)F)c3)C2=O)n1 (stereo not drawn) [Compound 67] :: 20
COc1cccc(N2CCC(n3ccc(C(C)(C)C)n3)C2=O)c1 (stereo not drawn) [Compound 87] :: 60
CCOc1cccc(N2CCC(n3ccc(C(C)C)n3)C2=O)c1 (stereo not drawn) [Compound 128] :: 60

Could you now consider this next compound?
Given CCC(C)Oc1cccc(N2CCC(n3ccc(C(C)(C)C)n3)C2=O)c1 (stereo not drawn) [Compound 127] , state its recorded Plant response rating, Corn. 0

---

Tested on: lambsquarters (Chenopodium album)
Assay: Test B preemergence
Type: in vivo
Settings: preemergence; Rate 125 g/ha; scale of 0 to 100 where 0 is no effect and 100 is complete control; 13 to 15 days
reported endpoint: Plant response rating, Lambsquarters
Write the value as a bare number.

Observe how each entry below is paired with its result.
CC(C)c1cccc(N2CCC(n3ccc(C(C)(C)C)n3)C2=O)c1 (centres unmarked) :: 30
CCCC(C)c1ccn(C2SCN(c3cccc(OC(F)(F)F)c3)C2=O)n1 (centres unmarked) :: 100
CCOc1cccc(N2CCC(n3ccc(C(C)CC)n3)C2=O)c1 (centres unmarked) :: 100
CC(C)(C)c1ccn(C2CCN(c3ccc4c(c3)CCC4)C2=O)n1 (centres unmarked) :: 60
CCOc1cccc(N2CCC(n3ccc(C(C)C)n3)C2=O)c1 (centres unmarked) :: 100
CCCCC(CCCC)c1ccn(C2OCN(c3cccc(C(F)(F)F)c3)C2=O)n1 (centres unmarked) :: 30

Reported Plant response rating, Lambsquarters for CC1(c2ccn(C3SCN(c4cccc(OC(F)(F)F)c4)C3=O)n2)CC1 (centres unmarked) : what is it? 100

Another: CC(C)(C)c1ccn(C2CCN(c3cccc(S(C)(=O)=O)c3)C2=O)n1 (centres unmarked) 0

---

System: smallflower flatsedge (Cyperus difformis)
Experiment: Test C flooded paddy test
Type: in vivo
Conditions: Flooded Paddy; Rate 500 g/ha; scale 0 to 100, 0 no effect, 100 complete control
reported endpoint: Flatsedge plant response rating

// below: answered compounds
CC(C)(C)c1ccn(C2CCN(c3ccc(Cl)c(Br)c3)C2=O)n1 (centres unmarked) :: 90
COc1cc(N2CCC(n3ccc(C(C)(C)C)n3)C2=O)ccc1Br (centres unmarked) :: 95
CC(C)(C)c1ccn(C2CCN(c3cccc(C(F)(F)F)c3)C2=S)n1 (centres unmarked) :: 100
CCOc1cccc(N2CCC(n3ccc(C(C)C)n3)C2=O)c1 (centres unmarked) :: 100

# next compound below
# query: Flatsedge plant response rating of entry CC(C)(C)c1ccn(C2CCN(c3ccc4c(c3)CCC4)C2=O)n1 (centres unmarked) 90

---

System: giant foxtail (Setaria faberii)
Assay: Test B preemergence
Format: in vivo
Details: Preemergence, Rate 500 g/ha; scale 0 to 100, 0 no effect, 100 complete control
Below, each entry is listed alongside its reported Plant response rating, Foxtail, Giant.
// return just the number, without any unit appended

Some molecules with known Plant response rating, Foxtail, Giant results, for comparison:
CC(C)(C)c1ccn(C2C(=O)N(c3cccc(C(F)(F)F)c3)C[S+]2[O-])n1 (stereo not shown) [Compound 29] :: 0
Cc1c(F)cc(N2CCC(n3ccc(C(C)(C)C)n3)C2=O)cc1Br (stereo not shown) [Compound 78] :: 10
CSc1cccc(N2CCC(n3ccc(C(C)(C)C)n3)C2=O)c1 (stereo not shown) [Compound 86] :: 100
CC(C)c1ccn(C2OCN(c3cccc(C(F)(F)F)c3)C2=O)n1 (stereo not shown) [Compound 27] :: 90
CCC(C)c1ccn(C2CCN(c3ccc(F)c(C(F)(F)F)c3)C2=O)n1 (stereo not shown) [Compound 145] :: 100
O=C1C(n2ccc(C3CCCCC3)n2)SCN1c1cccc(OC(F)(F)F)c1 (stereo not shown) [Compound 50] :: 100

Request the reported Plant response rating, Foxtail, Giant associated with CC(C)(C)c1ccn(C2CCN(c3cccc(OC(F)(F)F)c3)C2=O)n1 (stereo not shown) [Compound 49] 90

---

System: barnyardgrass (Echinochloa crus-galli)
Test: Test B preemergence
Type: in vivo
Settings: preemergence; Rate 125 g/ha; scale of 0 to 100 where 0 is no effect and 100 is complete control; 13 to 15 days
Below is a list of entries, each paired with its recorded Plant response rating, Barnyardgrass value.

CC(C)(C)c1ccn(C2CCN(c3ccc4c(c3)CCC4)C2=O)n1 (stereo not drawn) :: 0
CC(C)(C)c1ccn(C2CCN(c3cccc(C#N)c3)C2=O)n1 (stereo not drawn) :: 0
CC(C)(C)c1ccn(C2CCN(c3ccc(F)c(Br)c3)C2=O)n1 (stereo not drawn) :: 100
CC1(c2ccn(C3OCN(c4cccc(C(F)(F)F)c4)C3=O)n2)CC1 (stereo not drawn) :: 0
CCC(C)Oc1ccn(C2CCN(c3cccc(C(F)(F)F)c3)C2=O)n1 (stereo not drawn) :: 0

Read the next record carefully.
Request the reported Plant response rating, Barnyardgrass associated with COc1cc(N2CCC(n3ccc(C(C)C)n3)C2=O)ccc1C (stereo not drawn) 100

---

Test system: Nightshade
Experiment: Test C preemergence
Assay type: in vivo
Conditions: Rate 62 g/ha, scale 0 to 100
Source text: […]
Below: a set of entries, each annotated with reported Plant response rating, Nightshade.
Provide a numeric answer; units are not to be included.

Cc1ccc(N2CCC(n3ccc(C(C)(C)C)n3)C2=O)cc1I (centres unmarked) [Compound 122] :: 0
CCC(C)c1ccn(C2CCN(c3ccc(Cl)c(OC)c3)C2=O)n1 (centres unmarked) [Compound 119] :: 100
CCCC(C)c1ccn(C2OCN(c3cccc(OC(F)F)c3)C2=O)n1 (centres unmarked) [Compound 132] :: 0
COc1cc(N2CCC(n3ccc(C(C)(C)C)n3)C2=O)ccc1Br (centres unmarked) [Compound 141] :: 100
Cc1ccc(N2CCC(n3ccc(C(C)(C)C)n3)C2=O)cc1OCCCl (centres unmarked) [Compound 109] :: 90
CC(C)OC(=O)c1cccc(N2CCC(n3ccc(C(C)(C)C)n3)C2=O)c1 (centres unmarked) [Compound 124] :: 0

Query: Plant response rating, Nightshade; subject: CCC(CC)c1ccn(C2CCN(c3cccc(OC(C)C)c3)C2=O)n1 (centres unmarked) [Compound 84] 30
